Method Description: 2-octanol-aqueous buffer partition coefficient, logP of the compound at pH 7.4
Assay type: physicochemical
Property Label: logD

CC(C)(C)OC(=O)COc1cc(OCC(=O)OC(C)(C)C)c(-c2c3nc(c(-c4ccc(C(=O)O)cc4)c4ccc([nH]4)c(-c4c(OCC(=O)OC(C)(C)C)cc(OCC(=O)OC(C)(C)C)cc4OCC(=O)OC(C)(C)C)c4nc(c(-c5ccc(C(=O)O)cc5)c5ccc2[nH]5)C=C4)C=C3)c(OCC(=O)OC(C)(C)C)c1
1.66

1: O=C(O)COc1cc(OCC(=O)O)c(-c2c3nc(c(-c4ccc(C(=O)O)cc4)c4ccc([nH]4)c(-c4c(OCC(=O)O)cc(OCC(=O)O)cc4OCC(=O)O)c4nc(c(-c5ccc(C(=O)O)cc5)c5ccc2[nH]5)C=C4)C=C3)c(OCC(=O)O)c1
2: Cc1cc(C)c(-c2c3nc(c(-c4c(OCC(=O)O)cc(OCC(=O)O)cc4OCC(=O)O)c4ccc([nH]4)c(-c4c(C)cc(C)cc4C)c4nc(c(-c5c(OCC(=O)O)cc(OCC(=O)O)cc5OCC(=O)O)c5ccc2[nH]5)C=C4)C=C3)c(C)c1
Task item: Pick the one with the larger logD: 1 vs 2 When you have decided, please share the label of that item.
Reply: 2
